target: hGLP-1R (Homo sapiens, UniProt P43220); assay: Functional cAMP activation in the presence of 0.1% casein (no HSA); type: cell-based; details: read-out: Relative cAMP EC50, hGLP-1R;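 further: intracellular cAMP rise after 30 min at 37 °C read by HTRF, normalized between buffer only (0%) and maximal control ligand (100%), four-parameter variable-slope fit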
Sequence (P43220 24-463): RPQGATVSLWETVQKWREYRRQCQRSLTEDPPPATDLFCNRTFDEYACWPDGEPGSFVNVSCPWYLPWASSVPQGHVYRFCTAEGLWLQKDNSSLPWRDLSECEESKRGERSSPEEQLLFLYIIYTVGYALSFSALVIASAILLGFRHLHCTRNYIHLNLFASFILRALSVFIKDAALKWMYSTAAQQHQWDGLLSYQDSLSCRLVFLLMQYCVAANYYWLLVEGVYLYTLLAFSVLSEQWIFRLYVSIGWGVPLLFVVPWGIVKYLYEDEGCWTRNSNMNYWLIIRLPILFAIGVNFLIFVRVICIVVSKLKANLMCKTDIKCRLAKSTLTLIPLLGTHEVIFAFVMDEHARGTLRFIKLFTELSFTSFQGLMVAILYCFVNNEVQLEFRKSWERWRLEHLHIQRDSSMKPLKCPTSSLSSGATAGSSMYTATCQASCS
Starred links: 1 amine or outer side, 2 acyl side, 3 side chain; linkers in the order of their positions; H or OH if unused. Non-standard residues stand in square brackets, D forms with d. Groups on a side chain read outwards from the residue. No end group written: not given here. *: point of attachment. C18 diacid = O=C(O)CCCCCCCCCCCCCCCCC(=O)*; αMePhe(2-F) = C[C@](N)(Cc1ccccc1F)C(=O)O; γGlu = O=C(O)[C@H](CCC(=O)[*:2])N[*:1]; αMe4Pal = C[C@](N)(Cc1ccncc1)C(=O)O; αMeY = C[C@](N)(Cc1ccc(O)cc1)C(=O)O; 4Pal = N[C@@H](Cc1ccncc1)C(=O)O; αMeL = CC(C)C[C@](C)(N)C(=O)O; αMeS = C[C@](N)(CO)C(=O)O; Orn = NCCC[C@H](N)C(=O)O; AEEA = NCCOCCOCC(=O)O; Aib = CC(C)(N)C(=O)O
OBSERVATION TYPE: pEC50
Scale note: pEC50 = -log10(concentration in M).

H-Y[Aib]QGT[αMePhe(2-F)]TSD[4Pal][αMeS]I[αMeL]LD[Orn]K([γGlu-γGlu-C18 diacid])AQ[Aib][Orn]FI[dE][αMeY]LAEGGPSSGEPPPSGTE-NH2 [Example 544] :: 9.21
H-Y[Aib]QGT[αMePhe(2-F)]TSD[4Pal]SI[αMeL]LD[Orn]K([AEEA-γGlu-C18 diacid])AQ[αMe4Pal][Orn]FI[dE][αMeY]LIEGGPSSGAPPPESEE-NH2 [Example 756] :: 9.67
Y[Aib]QGT[αMePhe(2-F)]TSD[4Pal][αMeS]I[αMeL]LE[Orn]K([AEEA-γGlu-C18 diacid])AQ[αMe4Pal]EFI[dE][αMeY]LVEGGPSSGAPPPSGS-NH2 [Example 768] :: 9.59

Given H-Y[Aib]QGT[αMePhe(2-F)]TSD[4Pal]SILLDKK([γGlu-γGlu-C18 diacid])AQ[Aib]AFIEWLEEGGPSSGAPPPSGTE-NH2 [Example 549] , respond with its pEC50.
9.40

Given H-Y[Aib]QGT[αMePhe(2-F)]TSD[4Pal][αMeS]I[αMeL]LD[Orn]K([AEEA-γGlu-C18 diacid])AQ[Aib][Orn]FI[dE][αMeY]LIEGGPSSGEPPPEGE-NH2 [Example 698] , respond with its pEC50.
9.60

Given H-Y[Aib]QGT[αMePhe(2-F)]TSD[4Pal]SI[αMeL]LD[Orn]K([AEEA-γGlu-C18 diacid])AQ[αMe4Pal]EFI[dE][αMeY]LLEGGPSSGAPPPSGE-NH2 [Example 615] , respond with its pEC50.
9.24

Given H-Y[Aib]QGT[αMePhe(2-F)]TSD[4Pal][αMeS]I[αMeL]LD[Orn]K([AEEA-γGlu-C18 diacid])AQ[Aib][Orn]FIEYLIEGGPSSGEPPPEEG-NH2 [Example 476] , respond with its pEC50.
9.79

Given H-Y[Aib]QGT[αMePhe(2-F)]TSD[4Pal][αMeS]I[αMeL]LD[Orn]K([γGlu-γGlu-C18 diacid])AQ[Aib][Orn]FI[dE][αMeY]LAEGGPSSGEPPPSGGEE-NH2 [Example 590] , respond with its pEC50.
9.05

Given Y[Aib]QGT[αMePhe(2-F)]TSD[4Pal]SI[αMeL]LD[Orn]K([AEEA-γGlu-C18 diacid])AQ[αMe4Pal]EFI[dE][αMeY]LIEGGPSSGAPPPSGE-NH2 [Example 614] , respond with its pEC50.
9.60

Given H-Y[Aib]QGT[αMePhe(2-F)]TSD[4Pal][αMeS]I[αMeL]LD[Orn]K([γGlu-γGlu-C18 diacid])AQ[αMe4Pal]EFI[dE][αMeY]LIEGGPSSGEPPPSGS-NH2 [Example 715] , respond with its pEC50.
9.57
